tested on: Escherichia coli TOP10; assay: shrunken log2 fold change of peptide-encoding DNA abundance (4.5 h post-induction vs induction); higher = less antimicrobial activity (less host growth inhibition); conditions: time post-induction: 4.5 h; library: site-saturation at positions 5, 18, 19, 20
Label YES for high-side shrunken log2 fold change (at or above 0.3) and NO for low-side shrunken log2 fold change (below it).

Query string: Say whether "RRIRFRPPRLPRPRPRPRTCPRP" shows shrunken log2 fold change of 0.3 or more.
Result string: NO

Query string: Then "RRIRCRPPRLPRPRPRPTHAPRP" ?
Result string: YES

Query string: Then "RRIRGRPPRLPRPRPRPVMGPRP" ?
Result string: NO

Query string: Then "RRIRNRPPRLPRPRPRPQYYPRP" ?
Result string: NO

Query string: Then "RRIRPRPPRLPRPRPRPLTIPRP" ?
Result string: NO

Query string: Then "RRIRARPPRLPRPRPRPRLKPRP" ?
Result string: YES

Query string: Then "RRIRARPPRLPRPRPRPNPIPRP" ?
Result string: NO

Query string: Then "RRIRCRPPRLPRPRPRPKGDPRP" ?
Result string: NO

----------
system: Escherichia coli TOP10; assay: shrunken log2 fold change of peptide-encoding DNA abundance (4.5 h post-induction vs induction); higher = less antimicrobial activity (less host growth inhibition); conditions: time post-induction: 4.5 h; library: site-saturation at positions 5, 18, 19, 20
Please provide measured shrunken log2 fold change for the entries that follow.
Note: the reply should be a number with no unit written.

Query string: I'm curious: which shrunken log2 fold change was measured for "RRIRLRPPRLPRPRPRPRWRPRP" tested on Escherichia coli TOP10?
Result string: 0.463

Query string: Then "RRIRGRPPRLPRPRPRPPDPPRP" ?
Result string: 1.57

Query string: Then "RRIRPRPPRLPRPRPRPNLPPRP" ?
Result string: -0.142

Query string: Then "RRIRPRPPRLPRPRPRPEHMPRP" ?
Result string: -0.0558

Query string: Then "RRIRPRPPRLPRPRPRPKRMPRP" ?
Result string: 0.139

Query string: Then "RRIRLRPPRLPRPRPRPQQGPRP" ?
Result string: -0.0774

Query string: Then "RRIRYRPPRLPRPRPRPAKNPRP" ?
Result string: -0.508

Query string: Then "RRIRRRPPRLPRPRPRPNMEPRP" ?
Result string: 0.0673

Query string: Then "RRIRDRPPRLPRPRPRPVATPRP" ?
Result string: 0.814

Query string: Then "RRIRHRPPRLPRPRPRPWPLPRP" ?
Result string: -0.306

Query string: Then "RRIRLRPPRLPRPRPRPYIRPRP" ?
Result string: -1.62

Query string: Then "RRIRFRPPRLPRPRPRPTYWPRP" ?
Result string: 0.385

Query string: Then "RRIRHRPPRLPRPRPRPNKIPRP" ?
Result string: -0.622

Query string: Then "RRIRFRPPRLPRPRPRPSLQPRP" ?
Result string: -0.31

Query string: Then "RRIRERPPRLPRPRPRPYQEPRP" ?
Result string: -0.255

----------
test system: Escherichia coli TOP10; experiment: shrunken log2 fold change of peptide-encoding DNA abundance (4.5 h post-induction vs induction); higher = less antimicrobial activity (less host growth inhibition); details: time post-induction: 4.5 h; library: site-saturation at positions 5, 18, 19, 20
experimental.endpoint: shrunken log2 fold change

Query string: // shrunken log2 fold change lookup, key: "RRIRPRPPRLPRPRPRPEWAPRP"
Result string: 2.06

Query string: Then "RRIRMRPPRLPRPRPRPMFYPRP" ?
Result string: -0.127

Query string: Then "RRIRSRPPRLPRPRPRPCMIPRP" ?
Result string: -0.389

Query string: Then "RRIRKRPPRLPRPRPRPEYAPRP" ?
Result string: -0.000279

Query string: Then "RRIRNRPPRLPRPRPRPCDIPRP" ?
Result string: -0.0262

Query string: Then "RRIRIRPPRLPRPRPRPDGTPRP" ?
Result string: -0.303

Query string: Then "RRIRVRPPRLPRPRPRPADSPRP" ?
Result string: -0.0859

Query string: Then "RRIRHRPPRLPRPRPRPYWIPRP" ?
Result string: -0.124

Query string: Then "RRIRTRPPRLPRPRPRPQHEPRP" ?
Result string: -0.00128

Query string: Then "RRIRARPPRLPRPRPRPAMQPRP" ?
Result string: 0.723

Query string: Then "RRIRSRPPRLPRPRPRPLDGPRP" ?
Result string: -0.365

Query string: Then "RRIRKRPPRLPRPRPRPMEYPRP" ?
Result string: -0.00192

Query string: Then "RRIRKRPPRLPRPRPRPHRAPRP" ?
Result string: 0.515

Query string: Then "RRIRCRPPRLPRPRPRPNFRPRP" ?
Result string: 0.0821

Query string: Then "RRIRHRPPRLPRPRPRPRRMPRP" ?
Result string: 0.254

----------
Please provide measured shrunken log2 fold change for the entries that follow.
tested on: Escherichia coli TOP10; assay: shrunken log2 fold change of peptide-encoding DNA abundance (4.5 h post-induction vs induction); higher = less antimicrobial activity (less host growth inhibition); settings: time post-induction: 4.5 h; library: site-saturation at positions 5, 18, 19, 20
Note: the reply should be a number with no unit written.

Query string: // shrunken log2 fold change lookup, key: "RRIRIRPPRLPRPRPRPFANPRP"
Result string: -0.0225

Query string: Then "RRIRLRPPRLPRPRPRPNNVPRP" ?
Result string: -0.395

Query string: Then "RRIRDRPPRLPRPRPRPVWHPRP" ?
Result string: 0.0277

Query string: Then "RRIRSRPPRLPRPRPRPWYWPRP" ?
Result string: -0.307

Query string: Then "RRIRDRPPRLPRPRPRPYNLPRP" ?
Result string: -0.0574

Query string: Then "RRIRPRPPRLPRPRPRPQFCPRP" ?
Result string: -0.153

Query string: Then "RRIRERPPRLPRPRPRPDCAPRP" ?
Result string: 0.115

Query string: Then "RRIRMRPPRLPRPRPRPYHCPRP" ?
Result string: -0.72

----------
tested on: Escherichia coli TOP10; test: shrunken log2 fold change of peptide-encoding DNA abundance (4.5 h post-induction vs induction); higher = less antimicrobial activity (less host growth inhibition); settings: time post-induction: 4.5 h; library: site-saturation at positions 5, 18, 19, 20
Label yes (1) for high-side shrunken log2 fold change (at or above -0.1) and no (0) for low-side shrunken log2 fold change (below it).

Query string: Say whether "RRIRGRPPRLPRPRPRPHFYPRP" shows shrunken log2 fold change of -0.1 or more.
Result string: yes (1)

Query string: Then "RRIRGRPPRLPRPRPRPMAKPRP" ?
Result string: yes (1)

Query string: Then "RRIRDRPPRLPRPRPRPPEAPRP" ?
Result string: yes (1)

Query string: Then "RRIRERPPRLPRPRPRPFIPPRP" ?
Result string: no (0)

Query string: Then "RRIRSRPPRLPRPRPRPNEMPRP" ?
Result string: no (0)

Query string: Then "RRIRFRPPRLPRPRPRPSYTPRP" ?
Result string: no (0)

Query string: Then "RRIRPRPPRLPRPRPRPRHLPRP" ?
Result string: yes (1)

Query string: Then "RRIRNRPPRLPRPRPRPVLTPRP" ?
Result string: no (0)

Query string: Then "RRIRARPPRLPRPRPRPMNFPRP" ?
Result string: yes (1)

Query string: Then "RRIRLRPPRLPRPRPRPFAYPRP" ?
Result string: no (0)

Query string: Then "RRIRCRPPRLPRPRPRPSWDPRP" ?
Result string: no (0)

Query string: Then "RRIRVRPPRLPRPRPRPPSWPRP" ?
Result string: yes (1)

Query string: Then "RRIRERPPRLPRPRPRPKGDPRP" ?
Result string: yes (1)

Query string: Then "RRIRSRPPRLPRPRPRPYHGPRP" ?
Result string: no (0)

Query string: Then "RRIRKRPPRLPRPRPRPNKYPRP" ?
Result string: no (0)

----------
tested on: Escherichia coli TOP10; experiment: shrunken log2 fold change of peptide-encoding DNA abundance (4.5 h post-induction vs induction); higher = less antimicrobial activity (less host growth inhibition); conditions: time post-induction: 4.5 h; library: site-saturation at positions 5, 18, 19, 20
Please provide measured shrunken log2 fold change for the entries that follow.
Note: the reply should be a number with no unit written.

Query string: I'm curious: which shrunken log2 fold change was measured for "RRIRRRPPRLPRPRPRPIHYPRP" tested on Escherichia coli TOP10?;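 note: peptides expressed intracellularly from a pBAD plasmid library in pooled LB shake-flask culture, induced with 0.3% L-arabinose, DNA abundance read by NGS, three biological replicates, DESeq2 with apeglm shrinkage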
Result string: -0.359

Query string: Then "RRIRTRPPRLPRPRPRPSTYPRP" ?
Result string: -0.4

Query string: Then "RRIRLRPPRLPRPRPRPTDHPRP" ?
Result string: -0.323

Query string: Then "RRIRDRPPRLPRPRPRPRAPPRP" ?
Result string: 0.359

Query string: Then "RRIRRRPPRLPRPRPRPSMIPRP" ?
Result string: -0.114

Query string: Then "RRIRDRPPRLPRPRPRPLCDPRP" ?
Result string: 0.287

Query string: Then "RRIRVRPPRLPRPRPRPAGDPRP" ?
Result string: 0.778

Query string: Then "RRIRGRPPRLPRPRPRPCDYPRP" ?
Result string: 0.132

Query string: Then "RRIRRRPPRLPRPRPRPGQLPRP" ?
Result string: 0.0163

Query string: Then "RRIRERPPRLPRPRPRPDRFPRP" ?
Result string: -0.01

Query string: Then "RRIRFRPPRLPRPRPRPQQLPRP" ?
Result string: -0.437

Query string: Then "RRIRARPPRLPRPRPRPVHWPRP" ?
Result string: 0.579

Query string: Then "RRIRLRPPRLPRPRPRPIYPPRP" ?
Result string: -0.134

Query string: Then "RRIRGRPPRLPRPRPRPRVPPRP" ?
Result string: 0.356

Query string: Then "RRIRTRPPRLPRPRPRPSGAPRP" ?
Result string: 0.251
